This section presents sequences with their documented shRNA barcode abundance ratio t end/t zero (log2) values.
- System: MDA-MB-231
- test.summary: shRNA barcode abundance ratio t_end/t_zero (depletion over 4 weeks of proliferation) (log2 ratio); higher = less depletion (weaker anti-proliferative effect of the shRNA)
- measurement.context: time after t zero 28 days
Please give only the number in your answer, with no unit.

GCTAACTGTGTGTACATATAT (targeted gene: PEA15) : -0.216
GCCTGCTGAATTTATGTTGTA (targeted gene: RAB6C) : -1.3
GCAGCTTCCTTGAACCATTAT (targeted gene: SPHK1) : -0.397

Entry CCATATGTTCATTACATACAT (targeted gene: FANCF) has what shRNA barcode abundance ratio t end/t zero (log2)?
0.17

Entry CGAGGCAACTTGAACTCAGAA (targeted gene: IER3) has what shRNA barcode abundance ratio t end/t zero (log2)?
0.272

Entry CCGAATCCGCATGACTCATAA (targeted gene: HDAC1) has what shRNA barcode abundance ratio t end/t zero (log2)?
1.63

Entry CCAGTGACCTTCGCTCCACAT (targeted gene: BAD) has what shRNA barcode abundance ratio t end/t zero (log2)?
0.391

Entry CCATTCTGATTCTTCAGTCAT (targeted gene: TOPORS) has what shRNA barcode abundance ratio t end/t zero (log2)?
0.459

Entry GCAGATTCGTTCAGAGTCTAA (targeted gene: BIRC3) has what shRNA barcode abundance ratio t end/t zero (log2)?
0.154

Entry GCGCAAGAAATCCCGGTATAA (targeted gene: VEGFA) has what shRNA barcode abundance ratio t end/t zero (log2)?
0.382

Entry CCACCTGGACTCCTATGAGAA (targeted gene: SOCS3) has what shRNA barcode abundance ratio t end/t zero (log2)?
0.145

Entry GATCCTAAGATGTGTTCTTAT (targeted gene: CYP1B1) has what shRNA barcode abundance ratio t end/t zero (log2)?
0.664

* * *

This section presents sequences with their documented shRNA barcode abundance ratio t end/t zero (log2) values.
- Test system: MDA-MB-231
- test.summary: shRNA barcode abundance ratio t_end/t_zero (depletion over 4 weeks of proliferation) (log2 ratio); higher = less depletion (weaker anti-proliferative effect of the shRNA)
- measurement.context: time after t zero 28 days

Guide cases for shRNA barcode abundance ratio t end/t zero (log2), answers given:
ACAGATATTTACTTCTGCAAA (targeted gene: CD28) : 0.143
ACCCATTCTTCCCGTTCTTAA (targeted gene: HDAC1) : 0.135
CCTCACCCTGTCAGGTATCAA (targeted gene: MYBL2) : -0.1
GGACATGACAACTCATCTCAT (targeted gene: IL6) : 0.175
GCACAGGCTTTATCGAGAATA (targeted gene: IGFBP3) : 0.0415
GCACAGCATCAAACCAAGTTA (targeted gene: MLH1) : 0.165
CGCCTTTCCTTAAGGAACAAA (targeted gene: NAIP) : 0.0933
GGCAAATCCTTGTTTAACAAA (targeted gene: BIRC6) : 0.616
GCACATCCTTGCTAATTTCAA (targeted gene: TPT1) : 0.0219
CCTGGGCATTCTTGTTTCAAT (targeted gene: IL1A) : -0.328

Entry CGAGAGAGTTTCCCTACGTAT (targeted gene: CDH1) has what shRNA barcode abundance ratio t end/t zero (log2)?
0.249

Entry CCAGATAATATTAAGGGAAAT (targeted gene: ABCB1) has what shRNA barcode abundance ratio t end/t zero (log2)?
0.255

Entry CCAGAGGCTTCCACTTAATAT (targeted gene: APAF1) has what shRNA barcode abundance ratio t end/t zero (log2)?
0.0519

Entry CGGCTTTATGATGCTTATGAA (targeted gene: ANXA5) has what shRNA barcode abundance ratio t end/t zero (log2)?
0.161

* * *

- System: MDA-MB-231
- test.summary: shRNA barcode abundance ratio t_end/t_zero (depletion over 4 weeks of proliferation) (log2 ratio); higher = less depletion (weaker anti-proliferative effect of the shRNA)
- measurement.context: time after t zero 28 days
This section presents sequences with their documented shRNA barcode abundance ratio t end/t zero (log2) values.

Guide cases for shRNA barcode abundance ratio t end/t zero (log2), answers given:
GGAGAGAACTGTCATTTCTAA (targeted gene: IGF1R) : 0.393
GGTGACTATACAGTCATTTAA (targeted gene: ATM) : -0.167
CCTTTCTCCAAACCCTCTTAA (targeted gene: BIRC2) : 0.28
CGGATTAGGGCATTTGAGAAA (targeted gene: IL7) : 0.319
GGCTAGACTTAGATTCATTAA (targeted gene: VHL) : 0.486
CCCTTCTTTGGGAATATAATT (targeted gene: CBX4) : 0.505
CCAAAGCATTTCATTGAGAAT (targeted gene: TOPORS) : -0.193
GCTCACTCTTCAGTCGGAAAT (targeted gene: BCL2L1) : -0.368

Notebook: pull reported shRNA barcode abundance ratio t end/t zero (log2) for MDA-MB-231, entry GCTGCCAAACTTCAGATAATA (targeted gene: NT5C3)
0.163

Notebook: pull reported shRNA barcode abundance ratio t end/t zero (log2) for MDA-MB-231, entry GGACTTCAGCAGAAATCTTTA (targeted gene: CASP8)
0.126

Notebook: pull reported shRNA barcode abundance ratio t end/t zero (log2) for MDA-MB-231, entry CCAGCTGTTTATGCATAGATA (targeted gene: CXCR4)
1.87

* * *

- Test system: MDA-MB-231
- test.summary: shRNA barcode abundance ratio t_end/t_zero (depletion over 4 weeks of proliferation) (log2 ratio); higher = less depletion (weaker anti-proliferative effect of the shRNA)
- measurement.context: time after t zero 28 days
parameter: shRNA barcode abundance ratio t end/t zero (log2)
Please give only the number in your answer, with no unit.

Guide cases for shRNA barcode abundance ratio t end/t zero (log2), answers given:
ACTTCAGAAATGGCACGATAA (targeted gene: AATF) : 0.24
GGTAGCAATTGCCTGAATAAT (targeted gene: IL7) : -0.149
GCTGTAACTACTTTATAACTA (targeted gene: RHOA) : -0.0204
CCAGAAGAGCCTATTACATCT (targeted gene: SOCS3) : 0.25
TCACACTGGTTCTCAATGAAA (targeted gene: BAG1) : 0.198

Entry CCATTGCCCATCGAGATTTAA (targeted gene: ACVR1) has what shRNA barcode abundance ratio t end/t zero (log2)?
0.196

Entry CCAGACTCAGTTCACTGCAAA (targeted gene: MALT1) has what shRNA barcode abundance ratio t end/t zero (log2)?
-0.00481

Entry CCAACATATCTCACTCTAGAA (targeted gene: BARD1) has what shRNA barcode abundance ratio t end/t zero (log2)?
0.531

Entry GGATGCTTCTGAATAGAAATA (targeted gene: BIRC7) has what shRNA barcode abundance ratio t end/t zero (log2)?
0.0929

Entry CGTCGTAATCACCACACTGAA (targeted gene: CDH1) has what shRNA barcode abundance ratio t end/t zero (log2)?
0.11

Entry GCATCATGCCTTCTGAATAAA (targeted gene: CLN3) has what shRNA barcode abundance ratio t end/t zero (log2)?
0.486

Entry CCAGCGATGAAGAATGTGGAA (targeted gene: CFLAR) has what shRNA barcode abundance ratio t end/t zero (log2)?
-0.0627

Entry GCGCACAGGCTTTATCGAGAA (targeted gene: IGFBP3) has what shRNA barcode abundance ratio t end/t zero (log2)?
-0.0187

Entry CGAGACATTCGCATCAAATAT (targeted gene: NRG2) has what shRNA barcode abundance ratio t end/t zero (log2)?
0.219

Entry GGTAAAGATGGCAAACAATAT (targeted gene: IL7) has what shRNA barcode abundance ratio t end/t zero (log2)?
0.391

Entry GCGTTTAAGGTGAGCATAAAT (targeted gene: CYP1B1) has what shRNA barcode abundance ratio t end/t zero (log2)?
-0.142

Entry TCAAATTGCGGCACATGTCAT (targeted gene: CD40LG) has what shRNA barcode abundance ratio t end/t zero (log2)?
-0.0903

Entry AGGCCTAGAGGTAACCAATAA (targeted gene: PRDX2) has what shRNA barcode abundance ratio t end/t zero (log2)?
-0.0855

Entry GCCCTGTACTTTAACCCAATT (targeted gene: BFAR) has what shRNA barcode abundance ratio t end/t zero (log2)?
0.0378

Entry GCCGTTAACTAGGTTAATAAA (targeted gene: FANCF) has what shRNA barcode abundance ratio t end/t zero (log2)?
-0.0468

* * *

- Tested on: MDA-MB-231
- test.summary: shRNA barcode abundance ratio t_end/t_zero (depletion over 4 weeks of proliferation) (log2 ratio); higher = less depletion (weaker anti-proliferative effect of the shRNA)
- measurement.context: time after t zero 28 days
parameter: shRNA barcode abundance ratio t end/t zero (log2)
Please give only the number in your answer, with no unit.

GCATGTAATAGAGTGTGCTAA (targeted gene: MSH2) : 1.01
GCCTTGGAACTGATGAAGATA (targeted gene: ANXA1) : 0.483
GCACTTGCCTTTAAACTATGT (targeted gene: NFIA) : 0.384

Entry GCCTATGACTTTATCATGAAA (targeted gene: ABCB1) has what shRNA barcode abundance ratio t end/t zero (log2)?
0.0933

Entry TGTTAACAAATGTGGCAATTA (targeted gene: TPT1) has what shRNA barcode abundance ratio t end/t zero (log2)?
0.164
